assayedTarget: human α form prion (human, UniProt P04156 90-230)
measuredParameter: pKd
Please express pKd as -log10 of the molar concentration.

q: Param item = huPrP-39 (scFv, V domains shown) VH: EVQLVQSGGGLVQPGRSLRLSCAASGFTFGDYAMSWVRQAPGKGPEWIATISSSGDILDYADSVRGRFSISRDNAQRSLHLQMTSLRPDDSAIYYCAREYFFSFDVWGRGTTVTVSS VL: QSVLAQPPSLSVSPGQTARITCSGDGVGSGFVSWYQQRPGQSPSVVIYDDAKRPSGIPERFSGSNSGDTATLTISESRAVDEADYYCQTWDSRSPVFGGGTKVTVLG ; retrieve measured pKd.
a: 7.48
